# System: compound-treated mice
# ASSAY_PROTOCOL: Neuropharmacological assay (SmartCube): behavioral activity signature and minimal effective dose
# Type: in vivo
# STATED_CONDITIONS: Mus musculus, ip, MED = dose having 50% or more total activity, read-out: Potency: minimal effective dose (MED), binned
Counter-ions that a name gives are not always drawn.
REPORTED_ENDPOINT: minimal effective dose

Some solved cases for reference:
>>> df
                                   compound  target_or_test_system       reported_endpoint          result
0            Cc1ccc2c(c1)[C@@H](C)OC[C@H]2N  compound-treated mice  minimal effective dose   3 to 10 mg/kg
1  CN[C@@H]1CO[C@H](C)c2ccccc21 (relative stereo) [Example 240, hydrochloride]  compound-treated mice  minimal effective dose   3 to 10 mg/kg
2             Cc1ccc2c(c1)[C@H](C)OC[C@H]2N  compound-treated mice  minimal effective dose   3 to 10 mg/kg
3            CC(C)C[C@H]1OCc2ccccc2[C@@H]1N  compound-treated mice  minimal effective dose  10 to 30 mg/kg
4  COc1ccc2c(c1)[C@H](N)[C@@H](C)OC2 (single isomer, unassigned)  compound-treated mice  minimal effective dose       < 3 mg/kg
5  CCN(C)C(=O)Oc1ccc2c(c1)[C@H](N)[C@@H](C)OC2.Cl  compound-treated mice  minimal effective dose      > 30 mg/kg

Request: Look up minimal effective dose with compound-treated mice for this compound: "C[C@H]1OC[C@@H](N)c2cc(F)ccc21.Cl"
Response: 3 to 10 mg/kg

Request: "CC[C@H]1OCc2cccc(C)c2[C@@H]1N.Cl" , same question.
Response: 3 to 10 mg/kg

Request: Cc1cccc2c1[C@@H](C)OC[C@H]2N (single isomer, unassigned) , same question.
Response: 3 to 10 mg/kg

The measurements presented in this section are drawn from patent US11077090B2.
